molecular target: Peroxisome proliferator-activated receptor delta (Homo sapiens, UniProt Q03181); assay: Agonist activity at PPARdelta (unknown origin)
Sequence (Q03181 whole entry): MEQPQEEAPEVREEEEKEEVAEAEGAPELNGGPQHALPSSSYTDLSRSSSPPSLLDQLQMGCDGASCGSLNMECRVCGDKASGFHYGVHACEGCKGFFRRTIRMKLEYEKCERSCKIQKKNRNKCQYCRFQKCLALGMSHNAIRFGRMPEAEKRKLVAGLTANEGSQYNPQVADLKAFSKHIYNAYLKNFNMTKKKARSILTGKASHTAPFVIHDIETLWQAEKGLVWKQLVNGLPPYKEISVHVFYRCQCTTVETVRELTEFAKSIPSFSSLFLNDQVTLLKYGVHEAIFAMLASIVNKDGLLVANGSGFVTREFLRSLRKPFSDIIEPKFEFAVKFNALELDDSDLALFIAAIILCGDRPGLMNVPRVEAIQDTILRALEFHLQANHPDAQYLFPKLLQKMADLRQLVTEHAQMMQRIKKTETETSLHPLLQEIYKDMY
Measured EC50 accompanies every entry in the list below.
Hi, when you answer, please include the unit after the number. Thanks!

Record excerpt, results attached:
INSERT INTO results (smiles_repr, recorded_measurement) VALUES
  ('COc1ccc(S(=O)(=O)n2cc(CCC(=O)O)c3cc(OC)ccc32)cc1', '940 nM'),
  ('[2H]C([2H])(Cc1cn(S(=O)(=O)c2ccc(OC)cc2)c2ccc(OC)cc12)C(=O)O', '850 nM');

Enquiry: Request - read-out EC50 | tested on Peroxisome proliferator-activated receptor delta (Homo sapiens, UniProt Q03181) | molecule [2H]C([2H])(Cc1cn(S(=O)(=O)c2ccc(OC)cc2)c2ccc(C3CC3)cc12)C(=O)O
Return: 2970 nM
